// data source = patent US8404710B2

- TARGET_OR_SYSTEM: PDE3B (Homo sapiens)
- Construct: cDNA of full length PDEs, specifically, PDE1A3, PDE2A3, PDE3A, PDE3B; unpurified cell suspension in RIPA buffer
- ASSAY_REMARKS: Inhibition of recombinant human PDE3B by ibudilast (Sf9 cell suspension)
- SETTINGS: PDE 3B, substrate cAMP 2 μM
QUANTITY_MEASURED: pIC50
// field semantics: pIC50 = negative decimal log of concentration (mol/L)

input: Specify measured pIC50 for CC(C)C(=O)c1c(C(C)C)nn2ccccc12 [ibudilast] .
output: 3.58

---

- TARGET_OR_SYSTEM: PDE10A1 (Homo sapiens)
- Construct: cDNA of full length PDEs, specifically, PDE1A3, PDE2A3, PDE3A, PDE3B, PDE4A4, PDE4B2, PDE4C2, PDE4D3, PDE5A1, PDE5A2, PDE5A3, PDE7A2, PDE8A1, PDE9A2, PDE10A1; made in house; host or cells: Sf9 insect cells (baculovirus)
- ASSAY_REMARKS: Inhibition of recombinant human PDE10A1 by ibudilast
- Format: biochemical
- SETTINGS: PDE 10A1, substrate cAMP 0.2 μM
QUANTITY_MEASURED: IC50 (µM)
// note: answer is a bare numeric in µM

input: Specify measured IC50 for CC(C)C(=O)c1c(C(C)C)nn2ccccc12 .
output: 3

---

- TARGET_OR_SYSTEM: UniProtKB P27815
- Sequence (P27815 whole entry): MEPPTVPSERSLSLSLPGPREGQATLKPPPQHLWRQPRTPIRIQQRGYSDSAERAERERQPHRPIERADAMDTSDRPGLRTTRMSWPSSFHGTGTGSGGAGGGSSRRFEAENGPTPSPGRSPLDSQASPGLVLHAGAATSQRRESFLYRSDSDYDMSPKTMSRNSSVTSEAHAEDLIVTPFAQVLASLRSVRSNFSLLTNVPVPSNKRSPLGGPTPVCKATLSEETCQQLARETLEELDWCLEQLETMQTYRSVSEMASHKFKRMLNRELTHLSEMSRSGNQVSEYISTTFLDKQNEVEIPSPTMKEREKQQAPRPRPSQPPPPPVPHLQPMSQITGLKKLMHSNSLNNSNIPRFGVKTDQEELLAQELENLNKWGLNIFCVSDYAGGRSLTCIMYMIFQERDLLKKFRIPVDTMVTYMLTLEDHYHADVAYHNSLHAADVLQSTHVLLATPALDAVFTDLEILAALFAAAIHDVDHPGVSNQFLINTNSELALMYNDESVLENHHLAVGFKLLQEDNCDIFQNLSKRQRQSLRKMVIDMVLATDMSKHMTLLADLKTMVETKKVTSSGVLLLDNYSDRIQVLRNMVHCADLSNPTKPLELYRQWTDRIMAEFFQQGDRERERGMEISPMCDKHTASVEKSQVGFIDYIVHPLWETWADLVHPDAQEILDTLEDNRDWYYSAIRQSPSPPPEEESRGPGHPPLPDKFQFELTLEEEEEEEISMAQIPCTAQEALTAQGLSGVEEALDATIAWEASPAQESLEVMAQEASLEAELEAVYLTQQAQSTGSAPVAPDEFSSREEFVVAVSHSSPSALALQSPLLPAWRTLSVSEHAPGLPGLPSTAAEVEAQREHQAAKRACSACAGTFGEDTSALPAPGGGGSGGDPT
- ASSAY_REMARKS: Inhibition of recombinant human PDE4A4 by ibudilast
- Assay type: biochemical
- SETTINGS: PDE 4A4, substrate cAMP 2 μM
QUANTITY_MEASURED: IC50 (µM)
// note: answer is a bare numeric in µM

input: Specify measured IC50 for CC(C)C(=O)c1c(C(C)C)nn2ccccc12 [ibudilast] .
output: 6

---

- TARGET_OR_SYSTEM: PDE2A3 (Homo sapiens, UniProt O00408)
- Construct: cDNA of full length PDEs, specifically, PDE1A3, PDE2A3; made in house; host or cells: Sf9 insect cells (baculovirus)
- Sequence (O00408 whole entry): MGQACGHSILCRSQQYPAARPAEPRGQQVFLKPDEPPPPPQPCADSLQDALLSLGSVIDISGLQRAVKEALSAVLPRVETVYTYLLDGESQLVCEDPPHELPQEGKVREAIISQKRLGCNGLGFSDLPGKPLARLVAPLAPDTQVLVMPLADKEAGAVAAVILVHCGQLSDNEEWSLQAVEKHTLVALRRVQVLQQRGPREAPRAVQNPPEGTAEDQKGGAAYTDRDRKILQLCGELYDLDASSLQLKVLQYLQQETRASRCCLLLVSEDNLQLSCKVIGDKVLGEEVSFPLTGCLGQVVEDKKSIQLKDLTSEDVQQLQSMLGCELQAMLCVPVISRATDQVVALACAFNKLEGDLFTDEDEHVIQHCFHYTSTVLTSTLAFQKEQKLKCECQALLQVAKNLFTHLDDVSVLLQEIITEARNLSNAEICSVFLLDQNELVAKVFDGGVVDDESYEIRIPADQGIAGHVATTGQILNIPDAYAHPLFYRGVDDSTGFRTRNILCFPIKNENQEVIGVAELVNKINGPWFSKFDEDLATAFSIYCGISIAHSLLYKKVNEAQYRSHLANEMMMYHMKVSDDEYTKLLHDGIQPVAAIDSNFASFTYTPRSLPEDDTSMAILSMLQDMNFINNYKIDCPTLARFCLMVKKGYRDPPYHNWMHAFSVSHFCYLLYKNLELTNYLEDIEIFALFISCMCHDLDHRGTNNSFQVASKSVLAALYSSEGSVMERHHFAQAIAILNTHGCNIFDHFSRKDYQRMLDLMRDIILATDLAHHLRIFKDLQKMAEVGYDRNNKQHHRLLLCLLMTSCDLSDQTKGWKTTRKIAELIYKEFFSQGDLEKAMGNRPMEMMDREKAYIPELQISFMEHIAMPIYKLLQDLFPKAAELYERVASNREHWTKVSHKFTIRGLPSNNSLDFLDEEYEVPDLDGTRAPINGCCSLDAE
- ASSAY_REMARKS: Inhibition of recombinant human PDE2A3 by ibudilast
- Format: biochemical
- SETTINGS: PDE 2A3, substrate cAMP 2 μM
QUANTITY_MEASURED: IC50 (µM)
// note: answer is a bare numeric in µM

input: Specify measured IC50 for CC(C)C(=O)c1c(C(C)C)nn2ccccc12 .
output: 78

---

- TARGET_OR_SYSTEM: PDE1A3 (Homo sapiens, UniProt P54750)
- Construct: cDNA of full length PDEs, specifically, PDE1A3; made in house; host or cells: Sf9 insect cells (baculovirus)
- Sequence (P54750 whole entry): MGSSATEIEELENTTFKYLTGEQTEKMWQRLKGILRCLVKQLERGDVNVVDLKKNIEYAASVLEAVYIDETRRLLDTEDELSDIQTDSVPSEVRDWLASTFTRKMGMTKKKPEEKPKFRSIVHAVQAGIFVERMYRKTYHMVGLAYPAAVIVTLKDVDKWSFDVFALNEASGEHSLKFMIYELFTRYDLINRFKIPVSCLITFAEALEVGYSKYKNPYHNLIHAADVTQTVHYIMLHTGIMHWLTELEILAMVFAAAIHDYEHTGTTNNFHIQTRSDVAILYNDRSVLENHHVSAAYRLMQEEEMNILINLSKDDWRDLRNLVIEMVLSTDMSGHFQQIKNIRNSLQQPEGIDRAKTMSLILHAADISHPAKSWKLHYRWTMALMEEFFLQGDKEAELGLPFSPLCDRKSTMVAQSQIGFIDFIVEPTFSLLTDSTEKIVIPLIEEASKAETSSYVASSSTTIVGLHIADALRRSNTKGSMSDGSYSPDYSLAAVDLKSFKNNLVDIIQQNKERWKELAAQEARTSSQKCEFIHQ
- ASSAY_REMARKS: Inhibition of recombinant human PDE1A3 by ibudilast
- Format: biochemical
- SETTINGS: PDE 1A3, substrate cGMP 2 μM
QUANTITY_MEASURED: pIC50
// field semantics: pIC50 = negative decimal log of concentration (mol/L)

input: Specify measured pIC50 for CC(C)C(=O)c1c(C(C)C)nn2ccccc12 .
output: 3.92

---

- TARGET_OR_SYSTEM: PDE4D3 (Homo sapiens)
- Construct: cDNA of full length PDEs, specifically, PDE1A3, PDE2A3, PDE3A, PDE3B, PDE4A4, PDE4B2, PDE4C2, PDE4D3
- Sequence (Q08499 1-673 isoform Q08499-2): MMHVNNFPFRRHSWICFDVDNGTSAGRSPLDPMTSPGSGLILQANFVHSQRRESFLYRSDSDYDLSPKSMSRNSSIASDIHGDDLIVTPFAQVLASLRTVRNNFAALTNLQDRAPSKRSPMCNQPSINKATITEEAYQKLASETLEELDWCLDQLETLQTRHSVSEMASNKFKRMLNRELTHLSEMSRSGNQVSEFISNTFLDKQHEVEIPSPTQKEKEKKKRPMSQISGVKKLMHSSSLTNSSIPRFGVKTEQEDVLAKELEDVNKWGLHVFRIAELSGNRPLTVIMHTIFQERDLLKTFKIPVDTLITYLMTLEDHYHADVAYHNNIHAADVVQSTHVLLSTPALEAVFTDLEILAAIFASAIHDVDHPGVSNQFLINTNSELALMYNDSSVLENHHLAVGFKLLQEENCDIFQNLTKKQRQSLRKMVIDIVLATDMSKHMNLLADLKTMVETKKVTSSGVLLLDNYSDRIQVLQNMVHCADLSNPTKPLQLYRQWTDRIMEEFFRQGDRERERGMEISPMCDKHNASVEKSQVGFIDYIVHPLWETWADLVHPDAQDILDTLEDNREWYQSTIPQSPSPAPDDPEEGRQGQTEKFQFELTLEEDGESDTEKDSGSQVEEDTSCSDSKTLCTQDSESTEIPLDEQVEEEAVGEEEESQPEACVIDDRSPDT
- ASSAY_REMARKS: Inhibition of recombinant human PDE4D3 by ibudilast
- SETTINGS: PDE 4D3, substrate cAMP 2 μM
QUANTITY_MEASURED: pIC50
// field semantics: pIC50 = negative decimal log of concentration (mol/L)

input: Specify measured pIC50 for CC(C)C(=O)c1c(C(C)C)nn2ccccc12 .
output: 5.22

---

- TARGET_OR_SYSTEM: PDE9A2 (Homo sapiens, UniProt O76083)
- Construct: cDNA of full length PDEs, specifically, PDE1A3, PDE2A3, PDE3A, PDE3B, PDE4A4, PDE4B2, PDE4C2, PDE4D3, PDE5A1, PDE5A2, PDE5A3, PDE7A2, PDE8A1, PDE9A2
- Sequence (O76083 1-533 isoform O76083-2): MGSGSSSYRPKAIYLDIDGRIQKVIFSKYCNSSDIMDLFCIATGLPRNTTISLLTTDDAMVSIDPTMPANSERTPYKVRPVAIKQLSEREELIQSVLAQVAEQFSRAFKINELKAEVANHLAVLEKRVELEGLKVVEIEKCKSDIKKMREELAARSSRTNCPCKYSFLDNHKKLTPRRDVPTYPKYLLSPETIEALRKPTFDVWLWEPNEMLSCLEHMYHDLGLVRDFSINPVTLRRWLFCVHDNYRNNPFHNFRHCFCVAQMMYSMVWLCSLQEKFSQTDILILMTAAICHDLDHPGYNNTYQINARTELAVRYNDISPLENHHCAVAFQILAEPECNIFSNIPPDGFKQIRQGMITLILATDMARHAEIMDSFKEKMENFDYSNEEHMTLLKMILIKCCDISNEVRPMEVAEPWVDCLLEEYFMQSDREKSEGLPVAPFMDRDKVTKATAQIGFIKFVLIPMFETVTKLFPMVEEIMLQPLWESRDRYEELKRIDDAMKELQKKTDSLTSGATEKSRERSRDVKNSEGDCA
- ASSAY_REMARKS: Inhibition of recombinant human PDE9A2 by ibudilast
- SETTINGS: PDE 9A2, substrate cGMP 0.2 μM
pIC50: −log10 of the molar value.
QUANTITY_MEASURED: pIC50

input: Specify measured pIC50 for CC(C)C(=O)c1c(C(C)C)nn2ccccc12 .
output: < 3.40

---

- TARGET_OR_SYSTEM: PDE7A2 (Homo sapiens, UniProt Q13946)
- Construct: cDNA of full length PDEs, specifically, PDE1A3, PDE2A3, PDE3A, PDE3B, PDE4A4, PDE4B2, PDE4C2, PDE4D3, PDE5A1, PDE5A2, PDE5A3, PDE7A2
- Sequence (Q13946 1-456 isoform Q13946-2): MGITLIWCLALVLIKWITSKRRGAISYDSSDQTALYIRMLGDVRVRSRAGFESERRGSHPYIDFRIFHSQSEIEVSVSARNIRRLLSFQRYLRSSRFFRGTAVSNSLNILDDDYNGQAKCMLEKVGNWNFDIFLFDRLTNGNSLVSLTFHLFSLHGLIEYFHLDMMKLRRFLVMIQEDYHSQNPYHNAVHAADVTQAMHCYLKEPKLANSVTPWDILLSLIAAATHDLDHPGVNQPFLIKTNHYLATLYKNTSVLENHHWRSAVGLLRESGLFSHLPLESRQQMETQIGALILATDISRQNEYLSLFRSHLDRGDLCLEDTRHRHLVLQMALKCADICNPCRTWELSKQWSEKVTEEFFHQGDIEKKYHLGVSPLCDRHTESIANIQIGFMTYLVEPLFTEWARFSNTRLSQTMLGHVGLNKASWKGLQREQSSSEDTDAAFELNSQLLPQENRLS
- ASSAY_REMARKS: Inhibition of recombinant human PDE7A2 by ibudilast
- SETTINGS: PDE 7A2, substrate cAMP 0.2 μM
QUANTITY_MEASURED: IC50

input: Specify measured IC50 for CC(C)C(=O)c1c(C(C)C)nn2ccccc12 [ibudilast] .
output: 115 µM

---

- TARGET_OR_SYSTEM: PDE10A1 (Homo sapiens, UniProt Q9Y233)
- Construct: cDNA of full length PDEs, specifically, PDE1A3, PDE2A3, PDE3A, PDE3B, PDE4A4, PDE4B2, PDE4C2, PDE4D3, PDE5A1, PDE5A2, PDE5A3, PDE7A2, PDE8A1, PDE9A2, PDE10A1; made in house; host or cells: Sf9 insect cells (baculovirus)
- Sequence (Q9Y233 1-779 isoform Q9Y233-1): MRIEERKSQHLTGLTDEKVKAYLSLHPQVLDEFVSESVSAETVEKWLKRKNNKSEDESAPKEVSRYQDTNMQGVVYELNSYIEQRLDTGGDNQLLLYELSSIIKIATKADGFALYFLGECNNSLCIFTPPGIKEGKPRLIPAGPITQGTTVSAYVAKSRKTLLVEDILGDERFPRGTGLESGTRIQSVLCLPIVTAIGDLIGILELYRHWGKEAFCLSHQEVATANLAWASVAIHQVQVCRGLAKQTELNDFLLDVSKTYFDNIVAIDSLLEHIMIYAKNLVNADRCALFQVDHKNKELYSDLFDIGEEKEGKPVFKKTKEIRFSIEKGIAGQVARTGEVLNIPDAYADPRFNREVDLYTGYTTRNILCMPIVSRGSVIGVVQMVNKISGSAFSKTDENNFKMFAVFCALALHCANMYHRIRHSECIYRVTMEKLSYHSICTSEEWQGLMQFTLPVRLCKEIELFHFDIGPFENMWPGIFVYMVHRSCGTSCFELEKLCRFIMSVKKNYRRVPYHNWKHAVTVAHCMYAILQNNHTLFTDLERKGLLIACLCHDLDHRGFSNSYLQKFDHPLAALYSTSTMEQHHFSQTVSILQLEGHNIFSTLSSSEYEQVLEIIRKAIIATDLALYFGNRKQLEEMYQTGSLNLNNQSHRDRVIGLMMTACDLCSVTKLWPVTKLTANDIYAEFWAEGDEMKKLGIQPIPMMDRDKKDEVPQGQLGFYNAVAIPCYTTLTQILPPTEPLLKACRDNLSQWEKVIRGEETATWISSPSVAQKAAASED
- ASSAY_REMARKS: Inhibition of recombinant human PDE10A1 by ibudilast
- Type: biochemical
- SETTINGS: PDE 10A1, substrate cGMP 2 μM
QUANTITY_MEASURED: IC50
# answer = value followed by unit

input: Specify measured IC50 for CC(C)C(=O)c1c(C(C)C)nn2ccccc12 .
output: 1000 nM

---

- TARGET_OR_SYSTEM: PDE1A3 (Homo sapiens, UniProt P54750)
- Construct: cDNA of full length PDEs, specifically, PDE1A3; made in house; host or cells: Sf9 insect cells (baculovirus)
- ASSAY_REMARKS: Inhibition of recombinant human PDE1A3 by ibudilast
- Assay type: biochemical
- SETTINGS: PDE 1A3, substrate cAMP 2 μM
QUANTITY_MEASURED: pIC50
// field semantics: pIC50 = negative decimal log of concentration (mol/L)

input: Specify measured pIC50 for CC(C)C(=O)c1c(C(C)C)nn2ccccc12 .
output: 4.40
